# test-details: physchem
# condition-description: LogPA (logP of the stated pure compound or, in a mixture, of the main isomer, 1-substituted 3-aryl-1H-pyrazole)
measured-metric: chromatographic logP

# compound, chromatographic logP
records = [
    ("CC(=O)n1ccc2c(-c3cn(C4CCCCO4)nc3-c3ccc(F)cc3)ccnc21 (stereo not shown)", 3.85),
    ("CCC(C)n1cc(-c2ccnc(NC(=O)COC)c2)c(-c2ccc(F)cc2)n1 (stereo not shown)", 2.95),
    ("CC(C)n1ncc(-c2ccnc(NC(=O)C(C)(C)C)c2)c1-c1ccc(F)cc1", 2.99),
]

QUERY: Please give the measured chromatographic logP for this compound: `CC(C)n1ncc(-c2ccncc2)c1-c1c(F)cccc1F`
RESULT: 1.54

QUERY: Please give the measured chromatographic logP for this compound: CCC(C)n1cc(-c2ccncc2)c(-c2c(F)cccc2F)n1 (stereo not shown)
RESULT: 1.82

Where do these numbers come from? They come from patent US20110183978A1.
